Source: paper PMC4780864

# assayed_system: GAK (Homo sapiens)
# Construct: catalytic domain-containing construct
# Sequence (O14976 whole entry, the tested form may be a part): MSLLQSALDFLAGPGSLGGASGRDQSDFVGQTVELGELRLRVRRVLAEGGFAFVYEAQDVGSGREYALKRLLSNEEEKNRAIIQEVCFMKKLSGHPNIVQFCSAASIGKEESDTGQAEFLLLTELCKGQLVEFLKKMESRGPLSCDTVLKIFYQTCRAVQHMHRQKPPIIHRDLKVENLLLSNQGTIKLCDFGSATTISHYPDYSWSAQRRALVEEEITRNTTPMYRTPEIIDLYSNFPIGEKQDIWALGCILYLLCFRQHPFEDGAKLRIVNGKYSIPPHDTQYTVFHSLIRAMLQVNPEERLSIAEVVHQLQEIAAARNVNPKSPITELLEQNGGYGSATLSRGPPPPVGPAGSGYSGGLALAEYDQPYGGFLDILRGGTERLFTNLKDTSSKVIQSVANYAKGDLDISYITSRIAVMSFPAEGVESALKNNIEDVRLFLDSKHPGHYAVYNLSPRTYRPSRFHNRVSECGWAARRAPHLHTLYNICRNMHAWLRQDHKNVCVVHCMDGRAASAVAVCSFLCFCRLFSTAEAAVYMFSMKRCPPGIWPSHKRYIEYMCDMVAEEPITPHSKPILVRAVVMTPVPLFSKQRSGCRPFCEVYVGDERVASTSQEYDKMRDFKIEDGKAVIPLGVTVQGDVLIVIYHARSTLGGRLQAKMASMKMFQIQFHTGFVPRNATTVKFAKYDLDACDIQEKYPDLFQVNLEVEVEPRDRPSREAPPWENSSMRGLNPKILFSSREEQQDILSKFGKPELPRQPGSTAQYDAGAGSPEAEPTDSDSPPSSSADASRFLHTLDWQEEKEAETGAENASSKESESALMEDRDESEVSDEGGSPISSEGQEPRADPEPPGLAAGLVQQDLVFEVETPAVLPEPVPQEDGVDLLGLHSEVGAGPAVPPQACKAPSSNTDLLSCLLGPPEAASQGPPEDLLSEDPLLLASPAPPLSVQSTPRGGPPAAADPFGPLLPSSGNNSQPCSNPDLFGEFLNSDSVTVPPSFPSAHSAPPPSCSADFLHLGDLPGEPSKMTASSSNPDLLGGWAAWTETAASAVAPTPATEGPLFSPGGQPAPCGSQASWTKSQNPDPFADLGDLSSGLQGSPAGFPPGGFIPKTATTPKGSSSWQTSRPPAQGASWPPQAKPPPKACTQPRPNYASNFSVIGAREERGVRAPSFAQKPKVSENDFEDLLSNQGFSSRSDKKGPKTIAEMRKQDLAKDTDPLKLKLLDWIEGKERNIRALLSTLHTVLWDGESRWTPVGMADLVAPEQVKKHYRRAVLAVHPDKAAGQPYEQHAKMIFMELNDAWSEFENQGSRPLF
# assay_notes: biochemical
# Set-up: Thermal shift assay (DSF, SYPRO Orange), 2 uM kinase domain, mean delta Tm of triplicates versus DMSO
# recorded_conditions: read-out: GAK
value_kind: ΔTm at 12.5 µM (°C)

Below: 5 molecules and their reported ΔTm at 12.5 µM.
molecule	value_kind	units_text	val
Clc1ccc(Nc2nnc(Cc3ccncc3)c3ccccc23)cc1	ΔTm at 12.5 µM	°C	0.0567
COc1cc2ncnc(Nc3ccc(F)c(Cl)c3)c2cc1NC(=O)/C=C/CN1CCCCC1	ΔTm at 12.5 µM	°C	7.28
CC(C)(C)Cn1c(N)nc2ccc(-c3[nH]c(C(C)(C)C)nc3-c3ccc(F)cc3)nc21	ΔTm at 12.5 µM	°C	9.03
C#Cc1cccc(Nc2ncnc3cc4c(cc23)OCCOCCOCCO4)c1	ΔTm at 12.5 µM	°C	3.33
Cc1[nH]c(/C=C2\C(=O)Nc3ccccc32)c(C)c1CCC(=O)O [Orantinib]	ΔTm at 12.5 µM	°C	3.99

a: CC1(COc2ccc3c(c2)ncn3-c2ccc3cccc(N4CCC(N)CC4)c3n2)COC1
b: CO[C@@H](C(=O)N1Cc2[nH]nc(NC(=O)c3ccc(N4CCN(C)CC4)cc3)c2C1)c1ccccc1
c: CN1CCN(CCOc2cc(OC3CCOCC3)c3c(Nc4c(Cl)ccc5c4OCO5)ncnc3c2)CC1
Prompt line: Form: Sort by [ΔTm at 12.5 µM] Order [ ascending ] Labels, ranked as asked.
Response line: b, a, c

###

# assayed_system: BIKE (Homo sapiens)
# Construct: gene BMP2K; catalytic domain-containing construct
# assay_notes: biochemical
# Set-up: Thermal shift assay (DSF, SYPRO Orange), 2 uM kinase domain, mean delta Tm of triplicates versus DMSO
# recorded_conditions: read-out: BIKE
value_kind: ΔTm at 12.5 µM (°C)

Below: 2 compounds and their reported ΔTm at 12.5 µM.
compound	assayed_system	units_text	val
Cc1ccc(Nc2nccc(N(C)c3ccc4c(C)n(C)nc4c3)n2)cc1S(N)(=O)=O [Pazopanib]	BIKE (Homo sapiens)	°C	7.25
COc1cccc2cc(-c3nc([C@H]4CC[C@H](C(=O)O)CC4)n4ncnc(N)c34)[nH]c12 [OSI-027]	BIKE (Homo sapiens)	°C	0.31

P: C[C@@]1(C(=O)Nc2ccc(F)nc2)CCCN1c1nc(Nc2cc(C3CC3)n[nH]2)c2cccn2n1 [BMS-754807]
Q: Cc1c(CN2CCN(C(=O)[C@H](C)O)CC2)sc2c(N3CCOCC3)nc(-c3cnc(N)nc3)nc12 [Apitolisib]
Prompt line: I'd appreciate it if you could identify which of P and Q has the greater ΔTm at 12.5 µM. Answer with the label corresponding to your selection.
Response line: P

A: COc1cc(N2CCC(N3CCN(C)CC3)CC2)ccc1Nc1ncnc(Nc2ccccc2S(=O)(=O)C(C)C)n1 [ASP3026]
B: Cn1cc(C2=C(c3cn(C4CCN(Cc5ccccn5)CC4)c4ccccc34)C(=O)NC2=O)c2ccccc21 [Enzastaurin]
C: CC1(C)CNc2cc(NC(=O)c3cccnc3NCc3ccncc3)ccc21 [Motesanib]
D: COc1cc(OC)c(/C=C/S(=O)(=O)Cc2ccc(OC)c(NCC(=O)O)c2)c(OC)c1 [Rigosertib]
E: CN1CCC(CNc2ccc3ncc(-c4cccc(OC(F)(F)F)c4)n3n2)CC1 [SGI-1776]
Prompt line: Rank by ΔTm at 12.5 µM (largest to smallest). Labels, ranked as asked.
Response line: E, A, B, C, D
(E: 10.2 °C, A: 2.92 °C, B: 1.79 °C, C: 0.3 °C, D: 0.203 °C)

1: COc1cc2c(N3CCN(C(=O)Nc4ccc(OC(C)C)cc4)CC3)ncnc2cc1OCCCN1CCCCC1 [Tandutinib]
2: Cc1ccc(F)c(NC(=O)Nc2ccc(-c3cccc4[nH]nc(N)c34)cc2)c1 [Linifanib]
3: CO[C@@H]1[C@H](N(C)C(=O)c2ccccc2)C[C@H]2O[C@]1(C)n1c3ccccc3c3c4c(c5c6ccccc6n2c5c31)C(=O)NC4 [Midostaurin]
Prompt line: Rank by ΔTm at 12.5 µM (largest to smallest). Labels, ranked as asked.
Response line: 3, 2, 1
(3: 14.9 °C, 2: 5.72 °C, 1: 1.76 °C)

###

# assayed_system: BIKE (Homo sapiens, UniProt Q9NSY1)
# Construct: gene BMP2K; catalytic domain-containing construct
# Sequence (Q9NSY1 whole entry, the tested form may be a part): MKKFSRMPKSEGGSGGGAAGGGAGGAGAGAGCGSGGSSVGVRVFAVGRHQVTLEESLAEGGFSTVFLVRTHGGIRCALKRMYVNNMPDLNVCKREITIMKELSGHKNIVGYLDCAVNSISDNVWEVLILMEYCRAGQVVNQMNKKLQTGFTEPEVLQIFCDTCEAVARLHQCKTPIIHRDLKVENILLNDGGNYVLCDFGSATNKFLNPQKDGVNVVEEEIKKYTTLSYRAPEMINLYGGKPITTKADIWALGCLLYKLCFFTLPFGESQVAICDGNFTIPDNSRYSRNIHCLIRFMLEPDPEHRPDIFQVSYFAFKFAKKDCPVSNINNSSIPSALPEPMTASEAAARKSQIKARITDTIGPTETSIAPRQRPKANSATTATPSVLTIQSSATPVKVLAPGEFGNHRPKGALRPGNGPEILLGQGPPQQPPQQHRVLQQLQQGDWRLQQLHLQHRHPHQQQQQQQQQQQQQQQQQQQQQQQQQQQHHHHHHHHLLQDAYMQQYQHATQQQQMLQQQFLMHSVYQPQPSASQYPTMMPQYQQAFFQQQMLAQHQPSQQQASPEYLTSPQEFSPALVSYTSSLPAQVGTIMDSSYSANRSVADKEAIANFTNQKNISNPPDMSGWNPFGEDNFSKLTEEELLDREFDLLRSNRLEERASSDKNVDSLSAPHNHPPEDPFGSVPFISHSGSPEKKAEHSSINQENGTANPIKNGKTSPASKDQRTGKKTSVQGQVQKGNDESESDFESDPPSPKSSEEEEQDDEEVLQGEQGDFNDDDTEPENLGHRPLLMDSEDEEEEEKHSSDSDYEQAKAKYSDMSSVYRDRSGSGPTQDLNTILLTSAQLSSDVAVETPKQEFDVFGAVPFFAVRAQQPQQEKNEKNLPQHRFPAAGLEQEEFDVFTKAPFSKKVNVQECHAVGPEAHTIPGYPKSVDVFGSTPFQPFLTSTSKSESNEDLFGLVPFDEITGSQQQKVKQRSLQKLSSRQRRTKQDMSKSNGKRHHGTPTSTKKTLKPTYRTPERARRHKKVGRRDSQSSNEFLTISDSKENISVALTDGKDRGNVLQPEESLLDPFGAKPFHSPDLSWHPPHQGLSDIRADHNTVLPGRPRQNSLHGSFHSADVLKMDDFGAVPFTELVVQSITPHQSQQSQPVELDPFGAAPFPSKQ
# assay_notes: biochemical
# Parameters: Thermal shift assay (DSF, SYPRO Orange), 2 uM kinase domain, mean delta Tm of triplicates versus DMSO
# recorded_conditions: read-out: BIKE
value_kind: ΔTm at 12.5 µM (°C)

Below: 6 compounds and their reported ΔTm at 12.5 µM.
compound	value_kind	units_text	val
COc1cc2ncnc(Nc3ccc(F)c(Cl)c3)c2cc1NC(=O)/C=C/CN1CCCCC1	ΔTm at 12.5 µM	°C	5.85
CN(c1ccccc1CNc1nc(Nc2ccc3c(c2)CC(=O)N3)ncc1C(F)(F)F)S(C)(=O)=O	ΔTm at 12.5 µM	°C	9.5
CC(C)NC[C@@H](C(=O)N1CCN(c2ncnc3c2[C@H](C)C[C@H]3O)CC1)c1ccc(Cl)cc1	ΔTm at 12.5 µM	°C	0.34
NC(=O)Nc1cc(-c2cccc(F)c2)sc1C(=O)N[C@H]1CCCNC1	ΔTm at 12.5 µM	°C	12.6
Cc1c(NC(=O)OC[C@@H]2COCCN2)cn2ncnc(Nc3ccc4c(cnn4Cc4cccc(F)c4)c3)c12	ΔTm at 12.5 µM	°C	4.37
Cc1cnc(NC(=O)Nc2cc(Br)c(C)cc2OC[C@@H]2CNCCO2)cn1	ΔTm at 12.5 µM	°C	3.04

a: Cc1cc(C(C)Nc2ccccc2)c2nc(N3CCOCC3)cc(=O)n2c1 (stereo not shown)
b: C#Cc1cccc(Nc2ncnc3cc(OC)c(OCCCCCCC(=O)NO)cc23)c1
c: COc1cc2nccc(Oc3ccc(NC(=O)Nc4cc(C)on4)c(Cl)c3)c2cc1OC
d: CCc1cc(Nc2nccc(-c3c(-c4ccc(OC)c(C(=O)Nc5c(F)cccc5F)c4)nc4ccccn34)n2)c(OC)cc1N1CCC(N2CCN(S(C)(=O)=O)CC2)CC1 [GSK1904529A]
Prompt line: Rank by ΔTm at 12.5 µM (largest to smallest). Labels, ranked as asked.
Response line: c, b, a, d
(c: 3.87 °C, b: 0.917 °C, a: 0.5 °C, d: 0.13 °C)

1: Cc1cccc(-c2nn3c(c2-c2ccnc4ccc(C(N)=O)cc24)CCC3)n1
2: COc1ccc(Cl)c(Nc2nc3ccccc3nc2NS(=O)(=O)c2cccc(NC(=O)C(C)(C)N)c2)c1
Prompt line: I'd appreciate it if you could identify which of 1 and 2 has the greater ΔTm at 12.5 µM. Answer with the label corresponding to your selection.
Response line: 2

1: CCn1c(=O)c(-c2cc[nH]n2)cc2c(C)nc(N)nc21
2: S=C(NCc1ccc2c(c1)OCO2)N1CCN(c2ncnc3c2oc2ccccc23)CC1
Prompt line: In terms of reported ΔTm at 12.5 µM, does 1 or 2 have the smaller number? Answer with the label corresponding to your selection.
Response line: 1

###

# assayed_system: BIKE (Homo sapiens)
# Construct: gene BMP2K; catalytic domain-containing construct
# assay_notes: biochemical
# Set-up: Thermal shift assay (DSF, SYPRO Orange), 2 uM kinase domain, mean delta Tm of triplicates versus DMSO
# recorded_conditions: read-out: BIKE
value_kind: ΔTm at 12.5 µM (°C)

Below: 5 compounds and their reported ΔTm at 12.5 µM.
compound_smiles	units_text	val
C[C@]12O[C@H](C[C@]1(O)CO)n1c3ccccc3c3c4c(c5c6ccccc6n2c5c31)CNC4=O	°C	16.5
O=C(Cc1ccc(-c2ccc(OCCN3CCOCC3)cc2)cn1)NCc1ccccc1	°C	1.76
Cc1ccc(NC(=O)c2ccc(CN3CC[C@H](N(C)C)C3)c(C(F)(F)F)c2)cc1Nc1nccc(-c2cncnc2)n1	°C	1.1
N#CCNC(=O)c1ccc(-c2ccnc(Nc3ccc(N4CCOCC4)cc3)n2)cc1	°C	15
CNc1nc(-c2ccc3c(N)n[nH]c3c2)cc(N2C[C@@H](C(=O)NC3CCCCC3)CC[C@H]2C)n1	°C	5.35

A: N#CC1(c2ccc(NC(=O)c3cccnc3NCc3ccncc3)cc2)CCCC1
B: COc1cc2ncnc(Nc3ccc(F)c(Cl)c3)c2cc1OCCCN1CCOCC1
Prompt line: I'd appreciate it if you could identify which of A and B has the greater ΔTm at 12.5 µM. Answer with the label corresponding to your selection.
Response line: B
(B: 2.84 °C, A: 0.843 °C)

###

# assayed_system: BIKE (Homo sapiens, UniProt Q9NSY1)
# Construct: gene BMP2K; catalytic domain-containing construct
# assay_notes: biochemical
# Design: Thermal shift assay (DSF, SYPRO Orange), 2 uM kinase domain, mean delta Tm of triplicates versus DMSO
# recorded_conditions: read-out: BIKE
value_kind: ΔTm at 12.5 µM (°C)

compound_smiles	assayed_system	val
CN1CCN(c2nc(C3=C(c4c[nH]c5ccccc45)C(=O)NC3=O)c3ccccc3n2)CC1	BIKE (Homo sapiens, UniProt Q9NSY1)	3.16
Cn1cnc2c(F)c(Nc3ccc(Br)cc3F)c(C(=O)NOCCO)cc21	BIKE (Homo sapiens, UniProt Q9NSY1)	0.367

1: Cc1nc(Nc2n[nH]c3c2CN(C(=O)N[C@H](CN(C)C)c2ccccc2)C3(C)C)c2sccc2n1
2: Nc1ncnc2c1c(COc1cccc(Cl)c1)nn2C1CCOCC1
Prompt line: I'd appreciate it if you could identify which of 1 and 2 has the greater ΔTm at 12.5 µM. Answer with the label corresponding to your selection.
Response line: 1
